Cited source: paper PMC9781003

# Measured Target: DabiOBP5 (Dioryctria abietella, UniProt A0A8E6HS34)
# Assay: Competitive fluorescence binding assay with 1-NPN probe, recombinant DabiOBP5
# Reported Conditions: 2 μM protein, 2–16 μM 1-NPN, 20 mM Tris-HCl pH 7.4; read-out: K1-NPN binding constant of DabiOBP5 and 1-NPN
Property Label: Kd (µM)
Number in µM, nothing else.

// Kd value for c1ccc(Nc2cccc3ccccc23)cc1 [1-NPN, N-phenyl-1-naphthylamine] : 7.49

----------
# Measured Target: DabiOBP14
# Format: binding, Dioryctria abietella
# Reported Conditions: competitive displacement of 1-NPN; three replicates; mean ± SE; listed as chlorfenapyr; read-out: OBP14 Ki (dissociation constant)
Property Label: Ki

// Ki value for `CCOCn1c(-c2ccc(Cl)cc2)c(C#N)c(Br)c1C(F)(F)F` : < 13 µM

----------
# Measured Target: DabiOBP5 (Dioryctria abietella, UniProt A0A8E6HS34)
# Sequence (A0A8E6HS34 19-139): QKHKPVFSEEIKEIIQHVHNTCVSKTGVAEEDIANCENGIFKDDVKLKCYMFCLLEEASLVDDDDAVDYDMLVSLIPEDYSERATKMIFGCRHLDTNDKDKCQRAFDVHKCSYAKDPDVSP
# Assay: Competitive fluorescence binding assay with 1-NPN probe, recombinant DabiOBP5
# Reported Conditions: ligand at 20 μM; DabiOBP5/1-NPN each 2 μM; Tris-HCl pH 7.4; NB = no binding; read-out: OBP5 F.D. (%) fluorescence displacement percent
inhibition at 20 µM reference
Number in %, nothing else.

Example cases with answers are listed next.
Compound: CC1=CC[C@H](C(C)C)C=C1
inhibition at 20 µM / %: 37.4
--
Compound: CCCCCCCCCC=O
inhibition at 20 µM / %: 29.1

// inhibition at 20 µM value for CCCCCC(=O)OCC [Ethyl hexanoate] : 24.2

// inhibition at 20 µM value for `CC(C)=CCC/C(C)=C/CC/C(C)=C/CC/C=C(\C)CC/C=C(\C)CCC=C(C)C` : 32.3

----------
OBP5 F.D. (%) fluorescence displacement percent reference
# Measured Target: DabiOBP5 (Dioryctria abietella, UniProt A0A8E6HS34)
# Sequence (A0A8E6HS34 19-139): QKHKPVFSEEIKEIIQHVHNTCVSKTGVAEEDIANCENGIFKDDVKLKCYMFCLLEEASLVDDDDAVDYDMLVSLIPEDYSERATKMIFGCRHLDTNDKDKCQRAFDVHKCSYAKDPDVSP
# Assay: Competitive fluorescence binding assay with 1-NPN probe, recombinant DabiOBP5
# Reported Conditions: ligand at 20 μM; DabiOBP5/1-NPN each 2 μM; Tris-HCl pH 7.4; NB = no binding
Number in %, nothing else.

// OBP5 F.D. (%) fluorescence displacement percent value for `C=CC(C)=CCC=C(C)C` : 33.97

// OBP5 F.D. (%) fluorescence displacement percent value for `C/C1=C\CC/C(C)=C/CC(C)(C)/C=C/C1` : 15.42

// OBP5 F.D. (%) fluorescence displacement percent value for `CCCCCCCCCCCC(=O)O` : 33.87

// OBP5 F.D. (%) fluorescence displacement percent value for COC(C)=O [Methyl acetate] : 27.62

// OBP5 F.D. (%) fluorescence displacement percent value for `O=C(NC(=O)c1ccccc1Cl)Nc1ccc(Cl)cc1` : 39.11

// OBP5 F.D. (%) fluorescence displacement percent value for CCCCCOC(C)=O [Amyl acetate] : 26.33

----------
# Measured Target: DabiOBP14
# Format: binding, Dioryctria abietella
# Reported Conditions: competitive displacement of 1-NPN; three replicates; mean ± SE; listed as chlorpyrifos; read-out: OBP14 Ki (dissociation constant)
Property Label: Ki

// Ki value for CCOP(=S)(OCC)Oc1nc(Cl)c(Cl)cc1Cl [Chlorpyrifos] : < 13 µM

----------
# Measured Target: DabiOBP5 (Dioryctria abietella)
# Sequence (A0A8E6HS34 19-139): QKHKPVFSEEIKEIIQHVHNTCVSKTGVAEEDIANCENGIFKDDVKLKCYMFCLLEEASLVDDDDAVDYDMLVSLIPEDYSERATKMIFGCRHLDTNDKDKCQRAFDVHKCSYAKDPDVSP
# Assay: Competitive fluorescence binding assay with 1-NPN probe, recombinant DabiOBP5
# Reported Conditions: read-out: OBP5 Ki (dissociation constant); competitive displacement of 1-NPN; three replicates; mean ± SE
Property Label: pKi
Schema: pKi number; meaning minus log10 of the concentration expressed in molar units.

Smiles Str: CCOCn1c(-c2ccc(Cl)cc2)c(C#N)c(Br)c1C(F)(F)F
pKi: 5.09

Now look at this entry.
// pKi value for `CCOP(=S)(OCC)Oc1nc(Cl)c(Cl)cc1Cl` : 5.23

----------
# Measured Target: DabiOBP14
# Format: binding, Dioryctria abietella
# Reported Conditions: competitive displacement of 1-NPN; three replicates; mean ± SE; listed as ethyl-(2E,4Z)-decadienoate; read-out: OBP14 Ki (dissociation constant)
pKi: −log10 of the molar value.
Property Label: pKi

// pKi value for CCCCC/C=C\C=C\C(=O)OCC [Ethyl-(2E,4Z)-decadienoate] : > 4.89

----------
# Measured Target: UniProtKB A0A8E6HS34
# Sequence (A0A8E6HS34 19-139): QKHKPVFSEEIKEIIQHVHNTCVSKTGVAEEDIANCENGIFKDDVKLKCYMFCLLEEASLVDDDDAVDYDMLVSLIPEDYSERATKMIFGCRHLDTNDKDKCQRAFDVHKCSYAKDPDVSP
# Assay: Competitive fluorescence binding assay with 1-NPN probe, recombinant DabiOBP5
# Reported Conditions: ligand at 20 μM; DabiOBP5/1-NPN each 2 μM; Tris-HCl pH 7.4; NB = no binding; read-out: OBP5 F.D. (%) fluorescence displacement percent
inhibition at 20 µM reference
Number in %, nothing else.

Molecule: CCCCCCCCCCCCCCCCCCC
Measured Target: UniProtKB A0A8E6HS34
Reported: 27.7
--
Molecule: O=Cc1ccccc1
Measured Target: UniProtKB A0A8E6HS34
Reported: 36.8
--
Molecule: O=C(Oc1ccccc1)c1ccccc1 [Phenyl benzoate]
Measured Target: UniProtKB A0A8E6HS34
Reported: 31.7
--
Molecule: CCC(C)CO (centres unmarked)
Measured Target: UniProtKB A0A8E6HS34
Reported: 36
--
Molecule: CC1=CCC2CC1C2(C)C (centres unmarked)
Measured Target: UniProtKB A0A8E6HS34
Reported: 25.1
--
Molecule: O=C(OCc1ccccc1)c1ccccc1 [Benzyl benzoate]
Measured Target: UniProtKB A0A8E6HS34
Reported: 47.8

// inhibition at 20 µM value for `CCCCCCCC=O` : 35.6

// inhibition at 20 µM value for CCCCCCOC(C)=O [Hexyl acetate] : 23.7

// inhibition at 20 µM value for `CCCCCCCCO` : 35

// inhibition at 20 µM value for `CCCCCCCCCCCCCCCCCC` : 26.5

// inhibition at 20 µM value for N#Cc1nn(-c2c(Cl)cc(C(F)(F)F)cc2Cl)c(N)c1[S+]([O-])C(F)(F)F (centres unmarked) : 23.7

// inhibition at 20 µM value for `CCCCCCC=O` : 42.5

// inhibition at 20 µM value for `CC(=O)c1ccccc1` : 38.8

----------
# Test system: DabiOBP14
# Format: binding, Dioryctria abietella
# Reported Conditions: ligand at 20 μM; DabiOBP14/1-NPN each 2 μM; Tris-HCl pH 7.4; NB = no binding
# Procedure: In the binding assays, we selected 100 compounds derived from host/non-host plants and man-made insecticides widely used for the control of lepidopteran pests, representing 88 general odorants (21 esters, 21 alcohols, 14 aldehydes, 13 alkenes, seven ketones, 11 alkanes and one acid) and 12 insecticides. […] In order to measure the binding properties of the DabiOBPs to the 100 ligands, competitive binding assays were performed on a RF5301PC fluorescence spectrophotometer (Shimadzu, Japan). […]
Property Label: OBP14 F.D. (%) fluorescence displacement percent
Answer with the number, then the unit.

Example cases with answers are listed next.
Compound: O=C(NC(=O)c1c(F)cccc1F)Nc1ccc(Cl)cc1 [Diflubenzuron]
Reported: 30.33%
--
Compound: COC(=O)c1ccccc1 [Methyl benzoate]
Reported: 30.65%
--
Compound: CCCCCCCCOC(C)=O [Octyl acetate]
Reported: 30.09%

// OBP14 F.D. (%) fluorescence displacement percent value for O=C1CCC[C@@H]2[C@H]3CCCN4CCC[C@@H](CN12)[C@@H]34 [Matrine] : 29.59%

// OBP14 F.D. (%) fluorescence displacement percent value for CCCCCCCCCO [1-Nonanol] : 29.98%

// OBP14 F.D. (%) fluorescence displacement percent value for CCCCCCCCCCCC(=O)O [Lauric acid] : 30.18%

// OBP14 F.D. (%) fluorescence displacement percent value for CCOP(=S)(OCC)O/N=C(\C#N)c1ccccc1 [Phoxim] : 89.62%

// OBP14 F.D. (%) fluorescence displacement percent value for CCCCCCCCCCCCCCCCCCCCCCC [Tricosane] : 27.90%

// OBP14 F.D. (%) fluorescence displacement percent value for CCCCCCCO [1-Heptanol] : 39.10%

// OBP14 F.D. (%) fluorescence displacement percent value for CC/C=C\CCO [Z3-Hexen-1-ol] : 24.52%

// OBP14 F.D. (%) fluorescence displacement percent value for O=C(NC(=O)c1ccccc1Cl)Nc1ccc(Cl)cc1 [Chlorbenzuron] : 47.43%

// OBP14 F.D. (%) fluorescence displacement percent value for CCCC(=O)CC [3-Hexanone] : 36.58%
